Entries and their Bmax [%]: T-L values follow.
# Test system: human 20S proteasome, T-L peptidase
# Construct: purchased Enzo LifeSciences
# procedure.details: T-L peptidase activity of purified human 20S proteasome (BocLRR-MCA)
# Format: biochemical
# condition.description: maximal activation effect, % above the control activity
The reply should be a number in %, with the unit left off.

Sample answers from the record:
CO[C@H]1C[C@@H]2CC[C@@H](C)[C@@](O)(O2)C(=O)C(=O)N2CCCC[C@H]2C(=O)O[C@H]([C@H](C)C[C@@H]2CC[C@@H](OP(C)(C)=O)[C@H](OC)C2)CC(=O)[C@H](C)/C=C(\C)[C@@H](O)[C@@H](OC)C(=O)[C@H](C)C[C@H](C)/C=C/C=C/C=C/1C ... 114
CC[C@@H]1/C=C(\C)C[C@H](C)C[C@H](OC)[C@H]2O[C@@](O)(C(=O)C(=O)N3CCCC[C@H]3C(=O)O[C@H](/C(C)=C/[C@@H]3CC[C@H](Cl)[C@H](OC)C3)[C@H](C)[C@@H](O)CC1=O)[C@H](C)C[C@@H]2OC ... 483

Okay, now this compound:
Quick check: Bmax [%]: T-L of CO[C@H]1C[C@@H]2CC[C@@H](C)[C@@](O)(O2)C(=O)C(=O)N2CCCC[C@H]2C(=O)O[C@H]([C@H](C)C[C@@H]2CC[C@@H](O)[C@H](OC)C2)CC(=O)[C@H](C)/C=C(\C)[C@@H](O)[C@@H](OC)C(=O)[C@H](C)C[C@H](C)/C=C/C=C/C=C/1C ?
83

###

# target.system: human 20S proteasome, PGPH peptidase
# Construct: purchased Enzo LifeSciences
# procedure.details: PGPH peptidase activity of purified human 20S proteasome (CbzLLE-MCA)
# Type: biochemical
# condition.description: latent human 20S proteasome
measure: IC50

Sample answers from the record:
CO[C@H]1C[C@@H]2CC[C@@H](C)[C@@](O)(O2)C(=O)C(=O)N2CCCC[C@H]2C(=O)O[C@H]([C@H](C)C[C@@H]2CC[C@@H](OC(=O)C(C)(CO)CO)[C@H](OC)C2)CC(=O)[C@H](C)/C=C(\C)[C@@H](O)[C@@H](OC)C(=O)[C@H](C)C[C@H](C)/C=C/C=C/C=C/1C [temsirolimus] ... 0.36 µM
CO[C@@H](C[C@@H]1CC[C@@H](C)[C@](O)(C(=O)C(=O)N2CCCC[C@H]2C(=O)[O-])O1)/C(C)=C/C=C/C=C/[C@@H](C)C[C@@H](C)C(=O)[C@H](OC)[C@H](O)/C(C)=C/[C@@H](C)C(=O)/C=C/[C@H](C)C[C@@H]1CC[C@@H](O)[C@H](OC)C1.[Na+] [seco-rapamycin] ... 6.45 µM

Quick check: IC50 of CC[C@@H]1/C=C(\C)C[C@H](C)C[C@H](OC)[C@H]2O[C@@](O)(C(=O)C(=O)N3CCCC[C@H]3C(=O)O[C@H](/C(C)=C/[C@@H]3CC[C@H](Cl)[C@H](OC)C3)[C@H](C)[C@@H](O)CC1=O)[C@H](C)C[C@@H]2OC [pimecrolimus] ?
0.57 µM

// query: C=CC[C@@H]1/C=C(\C)C[C@H](C)C[C@H](OC)[C@H]2O[C@@](O)(C(=O)C(=O)N3CCCC[C@H]3C(=O)O[C@H](/C(C)=C/[C@@H]3CC[C@@H](O)[C@H](OC)C3)[C@H](C)[C@@H](O)CC1=O)[C@H](C)C[C@@H]2OC [FK-506]
0.93 µM

###

# target.system: human 20S proteasome, PGPH peptidase
# Construct: purchased Enzo LifeSciences
# procedure.details: PGPH peptidase activity of purified human 20S proteasome (CbzLLE-MCA)
# Assay type: biochemical
# condition.description: latent human 20S proteasome
Entries and their IC50 values follow.
The reply should be a number in µM, with the unit left off.

Sample answers from the record:
CO[C@H]1C[C@@H]2CC[C@@H](C)[C@@](O)(O2)C(=O)C(=O)N2CCCC[C@H]2C(=O)O[C@H]([C@H](C)C[C@@H]2CC[C@@H](O)[C@H](OC)C2)CC(=O)[C@H](C)/C=C(\C)[C@@H](O)[C@@H](OC)C(=O)[C@H](C)C[C@H](C)/C=C/C=C/C=C/1C ... 0.41
CO[C@H]1C[C@@H]2CC[C@@H](C)[C@@](O)(O2)C(=O)C(=O)N2CCCC[C@H]2C(=O)O[C@H]([C@H](C)C[C@@H]2CC[C@@H](OP(C)(C)=O)[C@H](OC)C2)CC(=O)[C@H](C)/C=C(\C)[C@@H](O)[C@@H](OC)C(=O)[C@H](C)C[C@H](C)/C=C/C=C/C=C/1C ... 0.43

Quick check: IC50 of CO[C@H]1C[C@@H]2CC[C@@H](C)[C@@](O)(O2)C(=O)C(=O)N2CCCC[C@H]2C(=O)O[C@H]([C@H](C)C[C@@H]2CC[C@@H](OCCO)[C@H](OC)C2)CC(=O)[C@H](C)/C=C(\C)[C@@H](O)[C@@H](OC)C(=O)[C@H](C)C[C@H](C)/C=C/C=C/C=C/1C ?
0.48

###

# target.system: human 20S proteasome, T-L peptidase
# Construct: purchased Enzo LifeSciences
# procedure.details: T-L peptidase activity of purified human 20S proteasome (BocLRR-MCA)
# Type: biochemical
# condition.description: activation of T-L peptidase
Entries and their log10(Kd) values follow.
Record value = log10 of Kd given in µM.

Sample answers from the record:
C=CC[C@@H]1/C=C(\C)C[C@H](C)C[C@H](OC)[C@H]2O[C@@](O)(C(=O)C(=O)N3CCCC[C@H]3C(=O)O[C@H](/C(C)=C/[C@@H]3CC[C@@H](O)[C@H](OC)C3)[C@H](C)[C@@H](O)CC1=O)[C@H](C)C[C@@H]2OC ... 0.06
CO[C@H]1C[C@@H]2CC[C@@H](C)[C@@](O)(O2)C(=O)C(=O)N2CCCC[C@H]2C(=O)O[C@H]([C@H](C)C[C@@H]2CC[C@@H](OC(=O)C(C)(CO)CO)[C@H](OC)C2)CC(=O)[C@H](C)/C=C(\C)[C@@H](O)[C@@H](OC)C(=O)[C@H](C)C[C@H](C)/C=C/C=C/C=C/1C ... -0.72
CO[C@H]1C[C@@H]2CC[C@@H](C)[C@@](O)(O2)C(=O)C(=O)N2CCCC[C@H]2C(=O)O[C@H]([C@H](C)C[C@@H]2CC[C@@H](OP(C)(C)=O)[C@H](OC)C2)CC(=O)[C@H](C)/C=C(\C)[C@@H](O)[C@@H](OC)C(=O)[C@H](C)C[C@H](C)/C=C/C=C/C=C/1C ... -0.96
CO[C@H]1C[C@@H]2CC[C@@H](C)[C@@](O)(O2)C(=O)C(=O)N2CCCC[C@H]2C(=O)O[C@H]([C@H](C)C[C@@H]2CC[C@@H](O)[C@H](OC)C2)CC(=O)[C@H](C)/C=C(\C)[C@@H](O)[C@@H](OC)C(=O)[C@H](C)C[C@H](C)/C=C/C=C/C=C/1C ... -0.85

Quick check: log10(Kd) of CO[C@H]1C[C@@H]2CC[C@@H](C)[C@@](O)(O2)C(=O)C(=O)N2CCCC[C@H]2C(=O)O[C@H]([C@H](C)C[C@@H]2CC[C@@H](OCCO)[C@H](OC)C2)CC(=O)[C@H](C)/C=C(\C)[C@@H](O)[C@@H](OC)C(=O)[C@H](C)C[C@H](C)/C=C/C=C/C=C/1C ?
-1.15

// query: CC[C@@H]1/C=C(\C)C[C@H](C)C[C@H](OC)[C@H]2O[C@@](O)(C(=O)C(=O)N3CCCC[C@H]3C(=O)O[C@H](/C(C)=C/[C@@H]3CC[C@H](Cl)[C@H](OC)C3)[C@H](C)[C@@H](O)CC1=O)[C@H](C)C[C@@H]2OC
0.26

// query: CO[C@@H](C[C@@H]1CC[C@@H](C)[C@](O)(C(=O)C(=O)N2CCCC[C@H]2C(=O)[O-])O1)/C(C)=C/C=C/C=C/[C@@H](C)C[C@@H](C)C(=O)[C@H](OC)[C@H](O)/C(C)=C/[C@@H](C)C(=O)/C=C/[C@H](C)C[C@@H]1CC[C@@H](O)[C@H](OC)C1.[Na+]
0.73

###

# target.system: human 20S proteasome, ChT-L peptidase
# Construct: purchased Enzo LifeSciences
# procedure.details: ChT-L peptidase activity of purified human 20S proteasome (Suc-LLVY-MCA)
# Type: biochemical
# condition.description: latent human 20S proteasome
Entries and their IC50 values follow.

Sample answers from the record:
C=CC[C@@H]1/C=C(\C)C[C@H](C)C[C@H](OC)[C@H]2O[C@@](O)(C(=O)C(=O)N3CCCC[C@H]3C(=O)O[C@H](/C(C)=C/[C@@H]3CC[C@@H](O)[C@H](OC)C3)[C@H](C)[C@@H](O)CC1=O)[C@H](C)C[C@@H]2OC ... > 20 µM
CC[C@@H]1/C=C(\C)C[C@H](C)C[C@H](OC)[C@H]2O[C@@](O)(C(=O)C(=O)N3CCCC[C@H]3C(=O)O[C@H](/C(C)=C/[C@@H]3CC[C@H](Cl)[C@H](OC)C3)[C@H](C)[C@@H](O)CC1=O)[C@H](C)C[C@@H]2OC ... > 20 µM

Okay, now this compound:
Quick check: IC50 of CO[C@@H](C[C@@H]1CC[C@@H](C)[C@](O)(C(=O)C(=O)N2CCCC[C@H]2C(=O)[O-])O1)/C(C)=C/C=C/C=C/[C@@H](C)C[C@@H](C)C(=O)[C@H](OC)[C@H](O)/C(C)=C/[C@@H](C)C(=O)/C=C/[C@H](C)C[C@@H]1CC[C@@H](O)[C@H](OC)C1.[Na+] ?
> 20 µM
